FYI, the data here is from patent US5919768A.

Target: P-selectin (Homo sapiens, UniProt P16109)
Construct: amino terminal lectin, EGF, and complement regulatory-like repeats (CR) 1 and 2
Sequence (P16109 42-321): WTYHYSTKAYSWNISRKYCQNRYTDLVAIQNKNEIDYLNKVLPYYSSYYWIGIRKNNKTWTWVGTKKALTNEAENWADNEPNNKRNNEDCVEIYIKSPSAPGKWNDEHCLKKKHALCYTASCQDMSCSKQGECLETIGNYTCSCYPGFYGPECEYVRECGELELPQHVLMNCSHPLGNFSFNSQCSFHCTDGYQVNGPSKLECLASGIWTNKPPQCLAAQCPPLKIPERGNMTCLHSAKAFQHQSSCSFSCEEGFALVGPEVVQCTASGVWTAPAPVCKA
Assay: Cell-protein assay: inhibition of binding of HL60 cells (expressing sialyl-Lewis^x) to P-selectin
Details: HL60 cell binding to selectin fusion protein on magnetic beads
assay.metric: IC50 (µM)
Numbers only, in µM.

entry.smiles	assay.metric	unit.abbreviation	value
O=C(O)Cc1cccc(-c2cc(Cc3cccc(Cc4ccc(O[C@H]5O[C@H](CO)[C@@H](O)[C@H](O)[C@@H]5O)c(-c5cccc(CC(=O)O)c5)c4)c3)ccc2O[C@H]2O[C@H](CO)[C@@H](O)[C@H](O)[C@@H]2O)c1	IC50	µM	220
O=C(O)COc1cccc(-c2cc(CCCCCCc3ccc(O[C@H]4O[C@H](CO)[C@@H](O)[C@H](O)[C@@H]4O)c(-c4cccc(OCC(=O)O)c4)c3)ccc2O[C@H]2O[C@H](CO)[C@@H](O)[C@H](O)[C@@H]2O)c1	IC50	µM	540

Attention now shifts to the item below.
stdin: Which IC50 is reported for this compound? O=C(O)Cc1cccc(-c2cc(CCCC(=O)N3CCC(CCCC4CCN(C(=O)CCCc5ccc(O[C@H]6O[C@H](CO)[C@@H](O)[C@H](O)[C@@H]6O)c(-c6cccc(CC(=O)O)c6)c5)CC4)CC3)ccc2O[C@H]2O[C@H](CO)[C@@H](O)[C@H](O)[C@@H]2O)c1
stdout: 1000
